These measurements were taken from paper PMC6107548.

Tested on: M.tb H37Rv (intra)
PROTOCOL_NOTES: MIC against intracellular M.tb H37Rv
Type: cell-based
CONDITIONS: Mycobacterium tuberculosis, Table S2
MIC by entry:
RESULT_TYPE: MIC

INSERT INTO measurements (compound, result_type, assay_value) VALUES
  ('O=C(O)c1ccc(Nc2nc(-c3cccs3)cs2)cc1O [GSK93A]', 'MIC', '> 50.1 µM'),
  ('O=C1OC2(CCC(CNc3ccc(-c4cc(F)cc(F)c4)nn3)CC2)CN1c1cccnn1 (stereo not shown) [GSK97C]', 'MIC', '3.16 µM'),
  ('Nc1ccc(/C=C/C(=O)N2CCC(COc3cccnc3)CC2)cn1 [GSK92A]', 'MIC', '> 50.1 µM'),
  ('N#Cc1ccc(COc2ccc3c(c2)CCN(C(=O)/C=C/c2ccc(Nc4ccc(F)cn4)cc2)C3)cc1 [GSK85A]', 'MIC', '> 50.1 µM');

----------
System: M.tuberculosis H37Rv
PROTOCOL_NOTES: MIC against M. tuberculosis H37Rv (extracellular)
Format: cell-based
CONDITIONS: Mycobacterium tuberculosis, Table S2, extracellular, read-out: MIC M.tb H37Rv (extra)
RESULT_TYPE: MIC (µM)

INSERT INTO results (compound, study_target, unit_of_measurement, value_operator, assay_value) VALUES
  ('Nc1ccc(/C=C/C(=O)N2CCC(COc3cccnc3)CC2)cn1 [GSK92A]', 'M.tuberculosis H37Rv', 'µM', '>', 80),
  ('O=C1OC2(CCC(CNc3ccc(-c4cc(F)cc(F)c4)nn3)CC2)CN1c1cccnn1 (stereo not shown) [GSK97C]', 'M.tuberculosis H37Rv', 'µM', '=', 20),
  ('O=C(O)c1ccc(Nc2nc(-c3cccs3)cs2)cc1O [GSK93A]', 'M.tuberculosis H37Rv', 'µM', '=', 31.2),
  ('N#Cc1ccc(COc2ccc3c(c2)CCN(C(=O)/C=C/c2ccc(Nc4ccc(F)cn4)cc2)C3)cc1 [GSK85A]', 'M.tuberculosis H37Rv', 'µM', '=', 2.5);

----------
STUDY_TARGET: Mt-AspRS (Mycobacterium tuberculosis, UniProt P9WFW3)
Sequence (P9WFW3 whole entry): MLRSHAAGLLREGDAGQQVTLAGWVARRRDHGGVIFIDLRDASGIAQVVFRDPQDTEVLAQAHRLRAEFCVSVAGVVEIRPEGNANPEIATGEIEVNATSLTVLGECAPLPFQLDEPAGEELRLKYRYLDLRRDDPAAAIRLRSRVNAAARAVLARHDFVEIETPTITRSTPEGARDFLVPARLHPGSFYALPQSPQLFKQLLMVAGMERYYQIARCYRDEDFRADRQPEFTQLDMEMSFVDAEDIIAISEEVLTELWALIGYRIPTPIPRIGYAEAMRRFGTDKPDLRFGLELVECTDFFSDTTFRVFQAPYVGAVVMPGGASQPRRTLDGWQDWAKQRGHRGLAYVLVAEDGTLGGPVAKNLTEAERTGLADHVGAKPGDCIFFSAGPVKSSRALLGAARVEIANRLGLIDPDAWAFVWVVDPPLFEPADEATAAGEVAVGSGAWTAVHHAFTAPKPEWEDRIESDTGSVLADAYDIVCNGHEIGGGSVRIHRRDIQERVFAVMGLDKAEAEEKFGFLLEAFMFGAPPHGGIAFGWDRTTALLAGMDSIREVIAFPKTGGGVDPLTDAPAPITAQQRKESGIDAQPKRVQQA
PROTOCOL_NOTES: biochemical
RESULT_TYPE: IC50 (µM)

INSERT INTO measurements (molecule, study_target, unit_of_measurement, assay_value) VALUES
  ('O=C1OC2(CCC(CNc3ccc(-c4cc(F)cc(F)c4)nn3)CC2)CN1c1cccnn1 (centres unmarked) [GSK97C]', 'Mt-AspRS (Mycobacterium tuberculosis, UniProt P9WFW3)', 'µM', 1.12),
  ('O=C(O)c1ccc(Nc2nc(-c3cccs3)cs2)cc1O [GSK93A]', 'Mt-AspRS (Mycobacterium tuberculosis, UniProt P9WFW3)', 'µM', 35.6);

----------
IC50 overview
STUDY_TARGET: Mt-AspRS (Mycobacterium tuberculosis)
PROTOCOL_NOTES: tRNA-independent ATP release assay (coupled enzymes, NADPH fluorescence)
Type: biochemical
Parameters: made in house
CONDITIONS: Table S2, 0.5 μM enzyme, 2 mM ADPCP, mean of two replicates
RESULT_TYPE: IC50 (µM)

INSERT INTO assay_data (molecule, study_target, unit_of_measurement, assay_value) VALUES
  ('Nc1ccc(/C=C/C(=O)N2CCC(COc3cccnc3)CC2)cn1 [GSK92A]', 'Mt-AspRS (Mycobacterium tuberculosis)', 'µM', 21.3),
  ('N#Cc1ccc(COc2ccc3c(c2)CCN(C(=O)/C=C/c2ccc(Nc4ccc(F)cn4)cc2)C3)cc1 [GSK85A]', 'Mt-AspRS (Mycobacterium tuberculosis)', 'µM', 3.37);
